A collection of compounds and their measured MBC S. enterica
Test system: Salmonella enterica NCTC 5188
Test: Minimum bactericidal concentration (MBC)
Format: cell-based
Conditions: 5 × 10^6 CFU/mL in MHB, lipopeptide 0-1000 μg/mL, 18 h at 37 °C, 10 μL spot-inoculated onto LB agar, overnight 37 °C
Non-standard residues stand in square brackets, D forms with d. Residues, ends and D or L forms follow the SMILES beside them. *: point of attachment. Palmitoyl = CCCCCCCCCCCCCCCC(=O)*
observable: MBC S. enterica (µg/mL)

[[record]]
compound = "CCCCCCCCCCCCCCCC(=O)N[C@@H](Cc1c[nH]c2ccccc12)C(=O)N[C@H](CCCCN)C(=O)N[C@H](CCCCN)C(N)=O [P2D] (Palmitoyl-Trp-[dK]-[dK]-NH2)"
observable = "MBC S. enterica"
numeric_result = 125

[[record]]
compound = "CCCCCCCCCCCCCCCC(=O)N[C@@H](Cc1ccc(O)cc1)C(=O)N[C@H](CCCCN)C(=O)N[C@H](CCCCN)C(N)=O [P1D] (Palmitoyl-Tyr-[dK]-[dK]-NH2)"
observable = "MBC S. enterica"
numeric_result = 125

[[record]]
compound = "CCCCCCCCCCCCCCCC(=O)N[C@@H](Cc1ccc(O)cc1)C(=O)N[C@@H](CCCCN)C(=O)N[C@@H](CCCCN)C(N)=O [P1] (Palmitoyl-Tyr-Lys-Lys-NH2)"
observable = "MBC S. enterica"
numeric_result = 125

[[record]]
compound = "CCCCCCCCCCCCCCCC(=O)N[C@@H](Cc1c[nH]c2ccccc12)C(=O)N[C@@H](CCCCN)C(=O)N[C@@H](CCCCN)C(N)=O [P2] (Palmitoyl-Trp-Lys-Lys-NH2)"
observable = "MBC S. enterica"
numeric_result = 250

